meta.source: paper PMC12136788

# tested.system: T1, UNK ZnF1-6 (called full-length) (human, UniProt Q9C0B0 30-357)
# T1 sequence: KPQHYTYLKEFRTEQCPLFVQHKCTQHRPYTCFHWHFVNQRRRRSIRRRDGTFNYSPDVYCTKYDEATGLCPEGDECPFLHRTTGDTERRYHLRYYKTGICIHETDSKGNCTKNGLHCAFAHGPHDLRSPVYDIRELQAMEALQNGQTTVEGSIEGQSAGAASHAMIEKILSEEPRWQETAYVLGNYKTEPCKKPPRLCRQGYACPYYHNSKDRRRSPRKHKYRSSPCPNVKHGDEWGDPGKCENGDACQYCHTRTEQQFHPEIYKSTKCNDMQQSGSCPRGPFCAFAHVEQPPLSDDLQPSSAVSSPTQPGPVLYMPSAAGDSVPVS
# protocol: nsRBNS (natural sequence RNA bind-n-seq); RBNS binding buffer (assumed for nsRBNS): 25 mM Tris pH 7.5, 150 mM KCl, 3 mM MgCl2, 0.01% Triton X-100, 500 ug/ml BSA, 20 U/ml SUPERase-In, 4 C; UNK is unkempt and MSI1 is Musashi-1; names of the RNAs are library labels; protein concentration not given here; high values mean tight binding
The full ranking holds about 5,800 sequences; the median of “enrichment r” is about 0.68, and the highest 2% start at about 11. The sample holds the highest values, similar sequences and a random draw of the others, so the mix is not that of the screen.
readout.kind: binding signal (enrichment R)
State the answer as a number, implicitly in enrichment R.

binder	binding signal, enrichment R
chr1:151249111:151249212:+|3pUTR|ENSG00000143398|unk|FALSE|unique (ssRNA) RNA: GGGAGUUCUACAGUCCGACGAUCGCAGAUUGUUGAAUUCCUGUUCUAUCCCUUCUCUAUCCCACCCUGCCUUGAUAAUAUGUUAGCCCAUACCCCAAAUAACUGUCUAUAUUAGACACCCCCAGCCAGUUUCUGGCUGCCUGUCAACAGAGGAUUGAGCAUCA	2.26

Input line: Given the entry ENSG00000107863:be:win_5701|CDS|ENSG00000107863|bound_else_gene|NA|bound_elsewhere_windowed (ssRNA) RNA: GGGAGUUCUACAGUCCGACGAUCAGCACCUUGGCUUCAACAAACAGGCCCCUUCUUUCCAUACCACCACAGUCACCUGACCAAAUAAACGGAGAAAGCUUCCAGAACGUGAGCAAAAAUGCUAGUUCUGCAGCGAAUGCCCAACAACAGAGGAUUGAGCAUCA , report its measured binding signal.
Output line: 0.589

Input line: Fill in: binding signal of ENSG00000070961:be:win_4401|3pUTR|ENSG00000070961|bound_else_gene|NA|bound_elsewhere_windowed (ssRNA) RNA: GGGAGUUCUACAGUCCGACGAUCGUUAUGACAUCUGUCCUAAUUAGUUUCUUAAAUACAUUUACUACUUAAUGGUUUUGAAGCAACUGUUUAAUUUUUAAAAUUUUUGAAAACUUGCUAAUAACCUUUUGUUCAGAAUUUAGUCAACAGAGGAUUGAGCAUCA is ___
Output line: 5.85
